# System: PI3K-α (PIK3CA) wild-type (WT), p110α/p85α complex (Homo sapiens, UniProt P42336)
# Construct: Recombinant, catalytically active human full length PIK3KA Wild-type and H1047R mutant; 6×His (N); purchased EMD Millipore Sigma 14-602M
# Assay Remarks: PI3K-alpha kinase (PIK3CA) biochemical activity, ADP-Glo, wild-type
# Protocol Conditions: Soy PI lipid substrate
pIC50: −log10 of the molar value.
Please provide measured pIC50 for the entries that follow.

See these solved cases before continuing.
{"columns": ["Compound", "pIC50"],
 "data": [
  ["Cc1cc([C@@H](C)Nc2ccccc2C(=O)O)c2oc(-c3ccc4nc(C)oc4n3)c(C)c(=O)c2c1", "6.00 to 6.30"],
  ["Cc1cc(C(C)Nc2ccccc2C(=O)O)c2oc(-c3ccc4cn[nH]c4c3)c(C)c(=O)c2c1 (single isomer, unassigned)", "6.00 to 6.30"]
]}

## Task Enter measured pIC50, system PI3K-α (PIK3CA) wild-type (WT), p110α/p85α complex (Homo sapiens, UniProt P42336), for the compound shown: Cc1cc(C(C)Nc2ccccc2C(=O)O)c2oc(-c3cnc4sc(C)nc4c3)cc(=O)c2c1 (single isomer, unassigned)
## Result 5.30 to 6.00

====

Please provide measured pIC50 for the entries that follow.
# System: PI3K-α (PIK3CA) H1047R mutant, p110α/p85α complex (Homo sapiens, UniProt P42336, H1047R)
# Construct: Recombinant, catalytically active human full length PIK3KA Wild-type and H1047R mutant; 6×His (N); purchased EMD Millipore Sigma 14-792M
# Sequence (P42336 whole entry H1047R): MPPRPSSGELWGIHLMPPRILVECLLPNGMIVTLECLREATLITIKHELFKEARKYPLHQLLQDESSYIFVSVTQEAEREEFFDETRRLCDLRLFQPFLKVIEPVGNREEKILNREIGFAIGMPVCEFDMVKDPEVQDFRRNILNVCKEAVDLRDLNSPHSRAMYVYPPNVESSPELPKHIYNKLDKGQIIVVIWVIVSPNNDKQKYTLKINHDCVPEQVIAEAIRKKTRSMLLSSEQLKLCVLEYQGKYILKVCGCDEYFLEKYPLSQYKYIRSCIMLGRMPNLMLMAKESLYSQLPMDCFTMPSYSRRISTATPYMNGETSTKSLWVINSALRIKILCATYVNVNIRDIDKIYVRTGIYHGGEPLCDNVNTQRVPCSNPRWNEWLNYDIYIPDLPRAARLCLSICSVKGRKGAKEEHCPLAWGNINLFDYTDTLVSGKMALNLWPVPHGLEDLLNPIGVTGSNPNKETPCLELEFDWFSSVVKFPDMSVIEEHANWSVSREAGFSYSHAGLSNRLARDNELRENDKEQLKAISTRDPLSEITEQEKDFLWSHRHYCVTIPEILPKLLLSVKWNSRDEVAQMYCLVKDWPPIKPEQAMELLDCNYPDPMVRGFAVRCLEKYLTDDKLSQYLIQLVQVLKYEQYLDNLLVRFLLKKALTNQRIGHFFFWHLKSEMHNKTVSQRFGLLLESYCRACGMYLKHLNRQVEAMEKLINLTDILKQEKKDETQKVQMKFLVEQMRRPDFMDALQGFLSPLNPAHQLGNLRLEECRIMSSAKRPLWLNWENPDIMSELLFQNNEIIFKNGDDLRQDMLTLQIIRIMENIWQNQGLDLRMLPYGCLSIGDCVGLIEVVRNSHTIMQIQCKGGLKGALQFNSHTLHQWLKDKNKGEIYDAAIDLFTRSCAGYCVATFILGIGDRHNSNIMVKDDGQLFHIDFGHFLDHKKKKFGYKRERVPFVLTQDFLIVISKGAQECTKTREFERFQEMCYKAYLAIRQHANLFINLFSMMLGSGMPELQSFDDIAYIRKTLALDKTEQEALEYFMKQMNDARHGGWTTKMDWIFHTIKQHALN
# Sequence (P27986 whole entry partner): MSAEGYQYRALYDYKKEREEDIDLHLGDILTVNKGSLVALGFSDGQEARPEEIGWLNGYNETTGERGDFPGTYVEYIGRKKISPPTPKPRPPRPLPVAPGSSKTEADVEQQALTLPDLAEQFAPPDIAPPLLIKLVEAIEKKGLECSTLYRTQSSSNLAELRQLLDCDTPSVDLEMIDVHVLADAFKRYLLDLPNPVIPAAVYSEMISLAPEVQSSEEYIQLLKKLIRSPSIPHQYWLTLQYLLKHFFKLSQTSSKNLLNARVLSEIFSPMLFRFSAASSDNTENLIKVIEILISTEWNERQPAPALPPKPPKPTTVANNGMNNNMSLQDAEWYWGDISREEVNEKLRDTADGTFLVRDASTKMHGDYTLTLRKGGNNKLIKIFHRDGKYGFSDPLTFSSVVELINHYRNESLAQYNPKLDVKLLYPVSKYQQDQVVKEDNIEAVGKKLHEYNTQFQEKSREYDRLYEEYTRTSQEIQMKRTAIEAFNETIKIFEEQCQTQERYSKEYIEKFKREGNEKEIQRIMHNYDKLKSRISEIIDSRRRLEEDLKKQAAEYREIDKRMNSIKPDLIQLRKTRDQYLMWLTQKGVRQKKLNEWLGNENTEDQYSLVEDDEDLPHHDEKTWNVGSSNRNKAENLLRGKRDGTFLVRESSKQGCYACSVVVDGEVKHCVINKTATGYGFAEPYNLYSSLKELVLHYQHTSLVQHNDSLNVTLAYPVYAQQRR
# Assay Remarks: PI3K-alpha kinase (PIK3CA) biochemical activity, ADP-Glo, H1047R mutant
# Protocol Conditions: PIP2diC8 lipid substrate (footnote 1)
pIC50: −log10 of the molar value.

See these solved cases before continuing.
{"columns": ["Compound", "Endpoint Name", "Result"],
 "data": [
  ["Cc1cc(C(C)Nc2ccccc2C(=O)O)c2oc(-c3ccc4c(c3)OCO4)cc(=O)c2c1 (single isomer, unassigned)", "pIC50", "> 6.30"],
  ["Cc1cc(C(C)Nc2ccccc2C(=O)O)c2oc(-c3cc4ccncc4o3)cc(=O)c2c1 (stereo not shown)", "pIC50", "> 6.30"],
  ["Cc1cc(C(C)Nc2ccccc2C(=O)O)c2oc(-c3cnc4nn(C)cc4c3)cc(=O)c2c1 (stereo not shown)", "pIC50", "> 6.30"]
]}

## Task Give the measured pIC50 for Cc1cc(C(C)Nc2ccccc2C(=O)O)c2oc(-c3ccc4[nH]c(C(F)(F)F)cc4c3)cc(=O)c2c1 (stereo not shown)
## Result 6.00 to 6.30

====

# System: PI3K-α (PIK3CA) H1047R mutant, p110α/p85α complex (Homo sapiens, UniProt P42336, H1047R)
# Construct: Recombinant, catalytically active human full length PIK3KA Wild-type and H1047R mutant; 6×His (N); purchased EMD Millipore Sigma 14-792M
# Assay Remarks: PI3K-alpha kinase (PIK3CA) biochemical activity, ADP-Glo, H1047R mutant
# Protocol Conditions: Soy PI lipid substrate
Please provide measured IC50 for the entries that follow.

{"columns": ["Compound", "System", "Result"],
 "data": [
  ["Cc1cc(C(C)Nc2ccccc2C(=O)O)c2oc(-c3ccc4cnn(C)c4c3)cc(=O)c2c1 (single isomer, unassigned)", "PI3K-α (PIK3CA) H1047R mutant, p110α/p85α complex (Homo sapiens, UniProt P42336, H1047R)", "< 0.5 µM"]
]}

For the 5 compounds below, give their IC50 values.
1. Cc1cc([C@@H](C)Nc2cccnc2C(=O)O)c2oc(-c3ccc4nc(C)sc4n3)cc(=O)c2c1
2. Cc1cc(C(C)Nc2ccccc2C(=O)O)c2oc(-c3cnn4ccccc34)cc(=O)c2c1 (single isomer, unassigned) [Example 125]
3. Cc1cc([C@@H](C)Nc2ccc(Br)nc2C(=O)O)c2oc(-c3ccc4nn(C)cc4c3)c(C)c(=O)c2c1
4. Cc1cc([C@@H](C)Nc2ccccc2C(=O)O)c2oc(-c3ccc4nc(C)sc4c3)c(C)c(=O)c2c1
5. Cc1cc(C(C)Nc2ccccc2C(=O)O)c2oc(-c3ccc4ccn(C)c4c3)cc(=O)c2c1 (single isomer, unassigned)

## Result
1 to 5 µM
< 0.5 µM
< 0.5 µM
< 0.5 µM
< 0.5 µM

====

# System: PI3K-α (PIK3CA) H1047R mutant, p110α/p85α complex (Homo sapiens, UniProt P42336, H1047R)
# Construct: Recombinant, catalytically active human full length PIK3KA Wild-type and H1047R mutant; 6×His (N); purchased EMD Millipore Sigma 14-792M
# Assay Remarks: PI3K-alpha kinase (PIK3CA) biochemical activity, ADP-Glo, H1047R mutant
# Protocol Conditions: Soy PI lipid substrate
pIC50: −log10 of the molar value.
Endpoint Name: pIC50

For the 4 molecules below, give their pIC50 values.
1. CC(Nc1ccccc1C(=O)O)c1cc(F)cc2c(=O)cc(-c3ccc4nn(C)cc4c3)oc12 (single isomer, unassigned) [Example 55]
2. Cc1cc(C(C)Nc2ccc(C)nc2C(=O)O)c2oc(-c3cc4ccccc4[nH]3)cc(=O)c2c1 (stereo not shown) [Example 99]
3. Cc1cc(C(C)Nc2ccccc2C(=O)O)c2oc(-c3cc4ccncc4o3)cc(=O)c2c1 (single isomer, unassigned) [Example 39]
4. Cc1cc(C(C)Nc2ccccc2C(=O)O)c2oc(-c3cccn4nccc34)cc(=O)c2c1 (single isomer, unassigned) [Example 106]

## Result
1: > 6.30; 2: 5.30 to 6.00; 3: > 6.30; 4: > 6.30

====

# System: PI3K-α (PIK3CA) wild-type (WT), p110α/p85α complex (Homo sapiens, UniProt P42336)
# Construct: Recombinant, catalytically active human full length PIK3KA Wild-type and H1047R mutant; 6×His (N); purchased EMD Millipore Sigma 14-602M
# Assay Remarks: PI3K-alpha kinase (PIK3CA) biochemical activity, ADP-Glo, wild-type
# Protocol Conditions: Soy PI lipid substrate
Endpoint Name: IC50

See these solved cases before continuing.
{"columns": ["Molecule", "IC50"],
 "data": [
  ["Cc1cc(C(C)Nc2ccc(Cl)nc2C(=O)O)c2oc(-c3ccc4cc[nH]c4n3)cc(=O)c2c1 (single isomer, unassigned) [Example 215]", "500 to 1000 nM"],
  ["Cc1cc(C(C)Nc2ccccc2C(=O)O)c2oc(-c3ccc4cnn(C)c4c3)c(C)c(=O)c2c1 (single isomer, unassigned)", "< 500 nM"]
]}

Moving on to the next molecule.
## Task Give the measured IC50 for Cc1cc([C@@H](C)Nc2ccccc2C(=O)O)c2oc(-c3ccc4nc(C)oc4c3)c(C)c(=O)c2c1
## Result 500 to 1000 nM

====

# System: PI3K-α (PIK3CA) H1047R mutant, p110α/p85α complex (Homo sapiens, UniProt P42336, H1047R)
# Construct: Recombinant, catalytically active human full length PIK3KA Wild-type and H1047R mutant; 6×His (N); purchased EMD Millipore Sigma 14-792M
# Assay Remarks: PI3K-alpha kinase (PIK3CA) biochemical activity, ADP-Glo, H1047R mutant
# Protocol Conditions: Soy PI lipid substrate
Endpoint Name: IC50

See these solved cases before continuing.
{"columns": ["Compound", "Result"],
 "data": [
  ["Cc1cc(C(C)Nc2ccccc2C(=O)O)c2oc(-c3cccc4oc(C)nc34)cc(=O)c2c1 (single isomer, unassigned)", "500 to 1000 nM"],
  ["Cc1cc(C(C)Nc2ccc(C)nc2C(=O)O)c2oc(-c3ccc4nn(C)cc4c3)c(C)c(=O)c2c1 (single isomer, unassigned)", "< 500 nM"],
  ["Cc1cc(C(C)Nc2ccccc2C(=O)O)c2oc(-c3ccc4cn[nH]c4c3)cc(=O)c2c1 (single isomer, unassigned)", "< 500 nM"],
  ["Cc1cc(C(C)Nc2ccc(Cl)nc2C(=O)O)c2oc(-c3ccc4cc[nH]c4n3)cc(=O)c2c1 (stereo not shown) [Example 195]", "< 500 nM"]
]}

For the 2 compounds below, give their IC50 values.
1. Cc1cc(C(C)Nc2ccccc2C(=O)O)c2oc(-c3cn(C)c4ccccc34)cc(=O)c2c1 (single isomer, unassigned)
2. Cc1cc(C(C)Nc2ccccc2C(=O)O)c2oc(-c3cnn4cccnc34)cc(=O)c2c1 (single isomer, unassigned) [Example 34]

## Result
1: < 500 nM; 2: < 500 nM

For the 8 compounds below, give their IC50 values.
1. Cc1cc(C(C)Nc2ccccc2C(=O)O)c2oc(-c3ccc4c(c3)OC(F)(F)O4)cc(=O)c2c1 (single isomer, unassigned)
2. Cc1cc(C(C)Nc2ccccc2C(=O)O)c2oc(-c3c[nH]c4ccccc34)cc(=O)c2c1 (single isomer, unassigned)
3. Cc1cc(C(C)Nc2ccccc2C(=O)O)c2oc(-c3ccc4nnc(C(F)(F)F)n4c3)cc(=O)c2c1 (single isomer, unassigned)
4. Cc1cc(C(C)Nc2ccccc2C(=O)O)c2oc(-c3ccc4c(c3)NC(=O)C4)cc(=O)c2c1 (single isomer, unassigned)
5. Cc1cc(C(C)Nc2ccccc2C(=O)O)c2oc(-c3ccc4c(n3)N(C)C(=O)C4)cc(=O)c2c1 (single isomer, unassigned)
6. Cc1cc(C(C)Nc2ccccc2C(=O)O)c2oc(-c3cnc4cn(C)nc4c3)cc(=O)c2c1 (single isomer, unassigned) [Example 43]
7. Cc1cc(C(C)Nc2ccccc2C(=O)O)c2oc(-c3cnn4ccccc34)cc(=O)c2c1 (single isomer, unassigned) [Example 29]
8. Cc1cc(C(C)Nc2ccccc2C(=O)O)c2oc(-c3ccc4nccn4c3)cc(=O)c2c1 (single isomer, unassigned)

## Result
1. < 500 nM
2. < 500 nM
3. 500 to 1000 nM
4. < 500 nM
5. < 500 nM
6. > 10000 nM
7. < 500 nM
8. < 500 nM
